- TARGET_OR_TEST_SYSTEM: T1, CD32b (FcgRIIb) (Homo sapiens, UniProt P31994)
- T1 sequence (P31994 43-310): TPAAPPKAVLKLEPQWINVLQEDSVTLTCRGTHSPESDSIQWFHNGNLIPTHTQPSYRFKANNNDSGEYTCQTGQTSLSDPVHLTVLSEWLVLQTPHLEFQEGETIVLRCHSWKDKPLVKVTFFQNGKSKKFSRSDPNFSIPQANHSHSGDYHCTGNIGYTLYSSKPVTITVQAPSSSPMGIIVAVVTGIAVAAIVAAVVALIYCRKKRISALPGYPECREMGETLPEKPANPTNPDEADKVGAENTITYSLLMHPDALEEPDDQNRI
- ASSAY_REMARKS: SPR binding to FcgR-his: CD32b
- MEASUREMENT_SETUP: 1 μM antibody, anti-his Fab captured FcgR-his
We begin with a simple list: items and their reported % Rmax, binding to hCD32b.
All answers are understood in %, so give the number only.

MOLECULE	UNITS_TEXT	% Rmax, binding to hCD32b
mAb12-IgG2.5 (protein, left off: another chain or arm of the molecule) constant: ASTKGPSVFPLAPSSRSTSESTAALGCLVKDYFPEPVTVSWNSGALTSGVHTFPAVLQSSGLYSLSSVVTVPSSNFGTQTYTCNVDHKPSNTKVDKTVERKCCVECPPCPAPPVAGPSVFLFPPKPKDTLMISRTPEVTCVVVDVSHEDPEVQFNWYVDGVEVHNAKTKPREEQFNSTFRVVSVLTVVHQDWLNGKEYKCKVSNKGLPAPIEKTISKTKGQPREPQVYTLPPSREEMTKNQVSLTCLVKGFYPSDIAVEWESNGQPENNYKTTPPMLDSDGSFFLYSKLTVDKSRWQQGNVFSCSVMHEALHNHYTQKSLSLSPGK	%	1

Now look at this entry.
// sample mAb8-IgG2.5G1-AY-V27 (protein, left off: another chain or arm of the molecule) constant: ASTKGPSVFPLAPSSRSTSESTAALGCLVKDYFPEPVTVSWNSGALTSGVHTFPAVLQSSGLYSLSSVVTVPSSNFGTQTYTCNVDHKPSNTKVDKTVERKCCVECPPCPAPELLGGPSVFLFPPKPKDTLMISRTPEVTCVVVDVEHEDPEVKFNWYVDGVEVHNAKTKPREEQYNSTYRVVSVLTVLHQDWLNGKEYKCKVSNKALPAPIEKTISKAKGQPREPQVYTLPPSREEMTKNQVSLTCLVKGFYPSDIAVEWESNGQPENNYKTTPPVLDSDGSFFLYSKLTVDKSRWQQGNVFSCSVMHEALHNHYTQKSLSLSPGK , its % Rmax, binding to hCD32b was 77
